Organism: Rattus norvegicus
assayExplanation: Open TG-GATES - Regimen: Single
Format: toxicity, organism-based, Sprague-Dawley
Set-up: regimen Single, gender Male, age 6 weeks
testConditions: in vivo, po, 0 mg/kg, 9 h, tissue Blood, route gavage, dose level Control
observedProperty: MCH
Field: value (include unit after the number)

Would you please look over these solved cases?
[[record]]
compound = "S=C=Nc1cccc2ccccc12 [1-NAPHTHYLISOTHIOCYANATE]"
observedproperty = "MCH"
measuredresult = "21.7 pg"

[[record]]
compound = "Cc1cnc(NC(=O)C2=C(O)c3ccccc3S(=O)(=O)N2C)s1"
observedproperty = "MCH"
measuredresult = "22.1 pg"

[[record]]
compound = "Cc1cccc(Nc2cc(Cl)nc(SCC(=O)O)n2)c1C"
observedproperty = "MCH"
measuredresult = "21.3 pg"

[[record]]
compound = "COc1ccc(Cl)cc1C(=O)NCCc1ccc(S(=O)(=O)NC(=O)NC2CCCCC2)cc1 [GLYBURIDE]"
observedproperty = "MCH"
measuredresult = "20.8 pg"


Shift focus to the following entry.
MCH for "Cn1cnc([N+](=O)[O-])c1Sc1ncnc2nc[nH]c12" ? 21.6 pg

From: ChEMBL document CHEMBL3885861
